Ref: patent US20180057604A1

The entries below come with measured EC50 values attached.
# Tgt: T1, human TfR extracellular domain with N-terminal His tag (human, UniProt P02786 89-760)
# T1 construct: Biotinylated in some assays; also called huTfR; HuTfR
# Test Name: ELISA, IgG
Endpoint Name: EC50 (mg/L)

Q89A (antibody, V domains shown, also called 15G11.v5 Q89A (CDR-L3) IgG) VH: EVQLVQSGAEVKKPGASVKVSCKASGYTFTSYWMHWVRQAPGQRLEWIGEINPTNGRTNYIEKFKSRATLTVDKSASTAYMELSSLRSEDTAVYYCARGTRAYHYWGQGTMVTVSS VL: DIQMTQSPSSLSASVGDRVTITCRASDNLYSNLAWYQQKPGKSPKLLVYDATNLADGVPSRFSGSGSGTDYTLTISSLQPEDFATYYCAHFWGTPLTFGQGTKVEIK
0.03
L96A (antibody, V domains shown, also called 15G11.v5 L96A (CDR-L3) IgG) VH: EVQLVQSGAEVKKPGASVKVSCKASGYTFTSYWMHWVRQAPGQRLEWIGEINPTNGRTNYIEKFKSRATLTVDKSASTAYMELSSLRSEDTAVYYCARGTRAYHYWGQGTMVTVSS VL: DIQMTQSPSSLSASVGDRVTITCRASDNLYSNLAWYQQKPGKSPKLLVYDATNLADGVPSRFSGSGSGTDYTLTISSLQPEDFATYYCQHFWGTPATFGQGTKVEIK
0.0099
T97A (antibody, V domains shown, also called 15G11.v5 T97A (CDR-L3) IgG) VH: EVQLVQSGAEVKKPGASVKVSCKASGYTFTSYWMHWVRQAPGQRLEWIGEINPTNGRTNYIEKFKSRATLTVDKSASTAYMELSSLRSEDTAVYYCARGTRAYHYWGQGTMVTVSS VL: DIQMTQSPSSLSASVGDRVTITCRASDNLYSNLAWYQQKPGKSPKLLVYDATNLADGVPSRFSGSGSGTDYTLTISSLQPEDFATYYCQHFWGTPLAFGQGTKVEIK
0.0134
W92A (antibody, V domains shown, also called 15G11.v5 W92A (CDR-L3) IgG; 15G11.W92A) VH: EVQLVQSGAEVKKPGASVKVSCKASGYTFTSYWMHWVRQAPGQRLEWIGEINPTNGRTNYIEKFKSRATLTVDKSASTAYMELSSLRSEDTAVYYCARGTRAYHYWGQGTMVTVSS VL: DIQMTQSPSSLSASVGDRVTITCRASDNLYSNLAWYQQKPGKSPKLLVYDATNLADGVPSRFSGSGSGTDYTLTISSLQPEDFATYYCQHFAGTPLTFGQGTKVEIK
0.0118
G93A (antibody, V domains shown, also called 15G11.v5 G93A (CDR-L3) IgG) VH: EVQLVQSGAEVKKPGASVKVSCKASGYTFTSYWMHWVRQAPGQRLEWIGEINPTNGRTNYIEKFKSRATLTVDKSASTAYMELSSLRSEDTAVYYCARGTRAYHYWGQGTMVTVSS VL: DIQMTQSPSSLSASVGDRVTITCRASDNLYSNLAWYQQKPGKSPKLLVYDATNLADGVPSRFSGSGSGTDYTLTISSLQPEDFATYYCQHFWATPLTFGQGTKVEIK
0.0145
